Each recorded value in this set is attributed to PubChem BioAssay (NCATS).

test: qHTS Assay for Identifying Gametocytocidal Compounds (AID 743244);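 further: on the % scale 0 is the no-effect control and ±100 the full control effect; actives lower the fluorescent signal which means gametocytes are killed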; conditions: P. falciparum 3D7 stage III-V gametocytes, alamarBlue, 72 h; active compounds read low
Results filed as inconclusive are left out.
Endpoint label: max response (%)
One number for each entry, in %.

Take each entry in turn and give its max response.
1. CC(=O)Nc1ccc(OC[C@](C)(O)C(=O)Nc2ccc([N+](=O)[O-])c(C(F)(F)F)c2)cc1
2. O=S(=O)(c1ccc(Cl)cc1)c1ccc(Cl)cc1
3. CS(=N)(=O)CC[C@H](N)C(=O)O (stereo partly drawn)
4. NC(N)=NOCCC(N)C(=O)O (stereo not drawn)

-- reply
1: 0.149; 2: -16; 3: -10.6; 4: 10.4

Take each entry in turn and give its max response.
1. C[C@@H](N)Cc1cnc[nH]1
2. NC1=NC(=O)N2CC12 (stereo not drawn)
3. NC(CCP(=O)(O)O)C(=O)O (stereo not drawn)
4. NCCc1c[nH]c2ccccc12
5. O=[N+]([O-])c1c2ccccc2cc2ccccc12
6. C[C@@H]1O[C@H](C[N+](C)(C)C)C[C@H]1O

-- reply
1: 1.66; 2: -4.05; 3: 12.6; 4: 11; 5: -7.57; 6: 7.91

Take each entry in turn and give its max response.
1. CC[N+]1(CCOC(=O)C(O)(c2ccccc2)c2ccccc2)CCCCC1
2. Cc1nccc2c1[nH]c1ccccc12
3. CN[C@@H](C)[C@H](O)c1ccccc1

-- reply
1. 2.2
2. 22.2
3. -11.3

* * *

Assay: qHTS of pediatric cancer cell lines to identify multiple opportunities for drug repurposing: Primary screen for RD cells (AID 1347104); further: nearly all actives have a fitted effect of over 55% in size; further: potency means the concentration at half of the fitted maximal effect
Details: RD rhabdomyosarcoma viability, CellTiter-Glo luminescence, 48 h; series mostly up to 46 µM
Description: Drug repurposing or repositioning has been offered as a strategy for drug development in oncology programs. This approach has special potential for childhood cancers and other rare or orphan diseases, where the expected return on new drug development has been a disincentive to pharmaceuticals. […] We employed a titration-based paradigm (quantitative high-throughput screening or qHTS), where all compounds were tested at multiple concentrations for their effect on cell viability. […]
Records with an inconclusive call do not appear. The source made the active and inactive calls. Calls follow the shape of the dose curve; as a rule, active = well fitted cell-killing curve with a large enough effect; inconclusive = small, poorly fitted or top-dose-only effect; inactive = flat fitted curve, though single readings scatter.
Endpoint label: Potency

Example results:
INSERT INTO results (compound, endpoint_label, reported_value) VALUES
  ('COC1=CC(C)=C[C@@H](C)[C@@H](O)[C@@H](C)CC(C)=CC=C[C@H](OC)[C@H]([C@@H](C)[C@@H](O)[C@H](C)[C@@]2(O)C[C@@H](O)[C@H](C)[C@@H](C(C)C)O2)OC1=O', 'Potency', '1 nM (active)'),
  ('O=C(Oc1ccc([N+](=O)[O-])cc1)N1CCC(C(O)(c2ccc3c(c2)OCO3)c2ccc3c(c2)OCO3)CC1', 'Potency', 'inactive'),
  ('CCNC(=O)CC1N=C(c2ccc(Cl)cc2)c2cc(OC)ccc2-n2c(C)nnc21 (centres undefined)', 'Potency', '5900 nM (active)'),
  ('CN(C)[C@@H]1C(=O)C(C(N)=O)=C(O)[C@@]2(O)C(=O)C3=C(O)c4c(O)cccc4[C@@](C)(O)[C@H]3[C@H](O)[C@@H]12', 'Potency', 'inactive'),
  ('CC(C)[C@]12O[C@@H]1[C@@H]1O[C@]13[C@]1(O[C@H]1C[C@@H]1C4=C(CC[C@@]13C)C(=O)OC4)[C@H]2O', 'Potency', '1 nM (active)');

Take each entry in turn and give its Potency.
1. CC(=O)[O][Hg][c]1ccccc1
2. C[C@H]([C@H](O)CCC(C)(C)O)[C@H]1CC[C@@]2(O)C3=CC(=O)[C@@H]4C[C@@H](O)[C@@H](O)C[C@]4(C)[C@@H]3CC[C@]12C
3. CC(N[C@H]1C[C@H]1c1ccccc1)c1ccc2c(c1)OCCO2 (some centres undefined)
4. O=C(Nc1ccncc1)C(=O)c1cn(Cc2ccc(Cl)cc2)c2ccccc12
5. C[C@]12COC(=O)C[C@@H]1CC[C@@H]1[C@H]2CC[C@@]2(C)[C@H]1CC[C@]2(C)O
6. COc1ccc(CC2NCCc3cc(OC)c(OC)cc32)cc1OC (centres undefined)
7. Fc1cc(Br)ccc1CBr
8. CCC(=O)OC1CCC2C3CCC4=CC(=O)CC[C@@]4(C)C3CC[C@]12C (some centres undefined)

-- reply
1. 944 nM (active)
2. inactive
3. inactive
4. 46.9 nM (active)
5. inactive
6. inactive
7. inactive
8. inactive

Take each entry in turn and give its Potency.
1. CC(O)CN1CCN(CC(=O)[O-])CCN(CC(=O)[O-])CCN(CC(=O)[O-])CC1.[Gd+3] (centres undefined)
2. CC[C@H]1C=CC=CC[C@@H](C)[C@H](O)[C@@](C)(O)C(=O)[C@@H](C)[C@H](O)[C@@H](C)C(=O)[C@@H](C)[C@H](O)[C@@H](C)C=CC(=O)O[C@@H]2[C@@H](C)[C@H](CC1)O[C@]1(CC[C@H](C)[C@H](C[C@@H](C)O)O1)[C@H]2C
3. CC(C)N(CCNC(=O)CN1CCCC1=O)C(C)C
4. O=C(O)C(Cl)Cl
5. CCCC[N+]1(C)[C@H]2CC(OC(=O)[C@H](CO)c3ccccc3)C[C@H]1[C@H]1O[C@H]12 (some centres undefined)
6. CCCCCCCCCC(CC)c1ccc(S(=O)(=O)O)cc1 (centres undefined)
7. C1=C2CCCN[C@H]2[C@@H]2C[C@H]1[C@@H]1CCCCN1C2

-- reply
1. inactive
2. 23500 nM (active)
3. inactive
4. inactive
5. inactive
6. inactive
7. inactive

Take each entry in turn and give its Potency.
1. CN[C@@H]1Cc2cccc3[nH]c(=O)n(c23)C1
2. CCNC(=O)C[C@@H]1N=C(c2ccc(Cl)cc2)c2cc(OC)ccc2-n2c(C)nnc21
3. CC1(C)CC/C(=C/c2ccc(Cl)cc2)C1(O)Cn1cncn1 (centres undefined)
4. CN1[C@H]2CC(O)C[C@H]1[C@H]1O[C@H]12 (some centres undefined)
5. CCOC(=O)c1c(C(C#N)=CN)c2ccc(Cl)c(Cl)c2n1C
6. O=c1cccc2n1CC1CNC[C@H]2C1
7. c1cc2c(cc1[C@H]1OC[C@H]3[C@H]1CO[C@H]3c1ccc3c(c1)OCO3)OCO2
8. CCN1CCN(C(=O)Cc2ccc(Nc3ncc(F)c(Nc4ccc(C(=O)Nc5ccccc5Cl)cc4)n3)cc2)CC1

-- reply
["inactive", "1180 nM (active)", "inactive", "33200 nM (active)", "inactive", "18700 nM (active)", "inactive", "13200 nM (active)"]

-- ask # query: Potency of entry CC[C@@H]1[C@@H](C)O[C@@](O)([C@@H](C)[C@H](O)[C@H](C)[C@H]2OC(=O)C=CC=C[C@@H](C)[C@@H]([C@@H](C)[C@@H](O)[C@H](C)[C@@]3(O)C[C@H](O[C@H]4C[C@H](O)[C@H](O)[C@H](C)O4)[C@H](CC)[C@@H](C)O3)OC(=O)C=CC=C[C@@H]2C)C[C@H]1O[C@H]1C[C@H](O)[C@H](O)[C@H](C)O1
-- reply 264 nM (active)

* * *

experiment: Quantitative High-Throughput drug screen in 47 multiple myeloma cell lines against the NCATS MIPE library collection: XG6_PLB cell viability assay (AID 1919865); settings: XG6 myeloma viability, CellTiter-Glo ATP luminescence, 48 h; series mostly up to 45.8 µM; further: potency means the concentration at half of the fitted maximal effect; nearly all actives have a fitted effect of over 40% in size
Inconclusive results are not listed. Calls of active or inactive are those of the source. The call rests on the fitted dose curve; in most records, active means well fitted cell-killing curve with a large enough effect; inconclusive means small, poorly fitted or top-dose-only effect, or effect the other way; inactive means no such curve, though single readings can be large or run the other way.
Endpoint label: Potency

INSERT INTO results (structure_as_smiles, endpoint_label, reported_value) VALUES
  ('CCN1CCN(C(=O)Cc2ccc(Nc3ncc(F)c(Nc4ccc(C(=O)Nc5ccccc5Cl)cc4)n3)cc2)CC1', 'Potency', '0.743 µM (active)');

-- ask # query: Potency of entry CN1CCN(c2ccc([N+](=O)[O-])c3no[n+]([O-])c23)CC1
-- reply 20.9 µM (active)

* * *

experiment: qHTS of pediatric cancer cell lines to identify multiple opportunities for drug repurposing: Primary screen for NB1643 cells (AID 1347099); conditions: NB1643 neuroblastoma viability, CellTiter-Glo luminescence, 48 h; series mostly up to 46 µM; further: nearly all actives have a fitted effect of over 50% in size
Records with an inconclusive call do not appear. The source made the active and inactive calls. Calls come from the whole dose curve; as a rule, active = well fitted cell-killing curve with a large enough effect; inconclusive = small, poorly fitted or top-dose-only effect; inactive = no such curve, though single readings can be large or run the other way.
// allowed return values: active, inactive

Observe how each entry below is paired with its result.
INSERT INTO assay_data (molecule, class_label) VALUES
  ('CC(C)(C)[C@]1(O)C[C@@H]2OC(=O)C[C@@]23C(=O)O[C@@H]2OC(=O)[C@H](O)C213 (some centres not stated)', 'inactive'),
  ('CC(=Cc1csc(C)n1)[C@@H]1C[C@H]2O[C@]2(C)CCC[C@H](C)[C@@H](O)[C@@H](C)C(=O)C(C)(C)[C@@H](O)CC(=O)O1', 'inactive'),
  ('O=S(=O)(CC1CS1)c1ccc(Oc2ccccc2)cc1 (configuration not stated)', 'active'),
  ('CC(C)(C)c1cc(C=C(C#N)C#N)cc(Br)c1O', 'active'),
  ('N=c1c2c(-c3ccccc3)c(-c3ccccc3)n(Cc3ccccc3)c2ncn1C1CCC(O)CC1 (configuration not stated)', 'active');

-- ask I would be grateful if you could indicate the recorded call for COC1=C[C@@H]2[C@@H]3Cc4ccc(OC)c(O)c4[C@]2(CCN3C)CC1=O .
-- reply active

-- ask I would be grateful if you could indicate the recorded call for c1cc2ccc3cccc4ccc(c1)c2c34 .
-- reply inactive

-- ask I would be grateful if you could indicate the recorded call for O=C(N[C@H]1CN2CCC1CC2)c1ccc(Cl)cc1 .
-- reply active
